# credit: the supplement of paper PMC10567573

B1: C20orf112 (parent)
chain: YANGGLNYSYRGYGALSSNLQPPA

Variants of: B1
Test Protocol: protein stability index of a GFP-peptide fusion (GPS, HEK-293T) (PSI 1-6); higher = more stable;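 note: lentivirally expressed fusions sorted by FACS into six bins by GFP to DsRed ratio, PSI derived from sequencing read proportions per bin multiplied by bin number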
Run Parameters: c terminus: a fixed tail appended
Kindly return Criterion met if reported protein stability index is no lower than 2; return Criterion not met if it is lower.

Mutation Label: P22D
Answer Label: Criterion not met
//
Mutation Label: N7R
Answer Label: Criterion not met
//
Mutation Label: N3Q
Answer Label: Criterion not met
//
Mutation Label: N7F
Answer Label: Criterion met
//
Mutation Label: Y8Q
Answer Label: Criterion not met
//
Mutation Label: G4R
Answer Label: Criterion not met
//
Mutation Label: L20H
Answer Label: Criterion not met
//
Mutation Label: Y1E
Answer Label: Criterion met
//
Mutation Label: G4S
Answer Label: Criterion not met
//
Mutation Label: N7Q
Answer Label: Criterion met
//
Mutation Label: G4K
Answer Label: Criterion met
//
Mutation Label: L6S
Answer Label: Criterion not met
//
Mutation Label: P22H
Answer Label: Criterion not met
//
Mutation Label: N3Y
Answer Label: Criterion not met
//
Mutation Label: L20E
Answer Label: Criterion not met
//
Mutation Label: L20T
Answer Label: Criterion not met
//
Mutation Label: Y13M
Answer Label: Criterion met
//
Mutation Label: Q21E
Answer Label: Criterion met
//
Mutation Label: P22F
Answer Label: Criterion met
//
Mutation Label: Y10V
Answer Label: Criterion not met
//
Mutation Label: Q21R
Answer Label: Criterion not met
//
Mutation Label: Q21W
Answer Label: Criterion not met
//
Mutation Label: A15P
Answer Label: Criterion met
//
Mutation Label: G5Y
Answer Label: Criterion not met
//
Mutation Label: S18D
Answer Label: Criterion not met
//
Mutation Label: L6I
Answer Label: Criterion met
//
Mutation Label: Y1I
Answer Label: Criterion met
//
Mutation Label: L20F
Answer Label: Criterion not met
//
Mutation Label: A2E
Answer Label: Criterion met
//
Mutation Label: L20W
Answer Label: Criterion not met
//
Mutation Label: S18E
Answer Label: Criterion not met
//
Mutation Label: R11M
Answer Label: Criterion met
//
Mutation Label: P22I
Answer Label: Criterion met
//
Mutation Label: N19Y
Answer Label: Criterion not met
//
Mutation Label: Y1A
Answer Label: Criterion met
//
Mutation Label: L6W
Answer Label: Criterion met
//
Mutation Label: P23F
Answer Label: Criterion met
//
Mutation Label: S17H
Answer Label: Criterion not met
